Attribution: paper PMC5374635

# TARGET_ENTITY: porcine pancreatic α-amylase (EC 3.2.1.1, type VI) (Sus scrofa, UniProt P00690)
# Sequence (P00690 16-511): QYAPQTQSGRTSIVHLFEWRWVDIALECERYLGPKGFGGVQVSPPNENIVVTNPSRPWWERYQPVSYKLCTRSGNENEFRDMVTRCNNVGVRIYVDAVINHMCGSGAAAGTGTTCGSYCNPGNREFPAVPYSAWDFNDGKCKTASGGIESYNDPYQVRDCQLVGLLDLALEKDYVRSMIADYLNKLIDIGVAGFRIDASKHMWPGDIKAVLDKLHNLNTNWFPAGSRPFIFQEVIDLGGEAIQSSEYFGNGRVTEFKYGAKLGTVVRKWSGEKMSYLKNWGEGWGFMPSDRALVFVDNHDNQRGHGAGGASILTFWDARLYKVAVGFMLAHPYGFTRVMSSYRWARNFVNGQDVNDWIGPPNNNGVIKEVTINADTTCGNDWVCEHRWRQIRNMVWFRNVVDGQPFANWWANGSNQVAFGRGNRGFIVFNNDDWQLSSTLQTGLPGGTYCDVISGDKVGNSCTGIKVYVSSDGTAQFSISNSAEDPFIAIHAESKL

{"columns": ["MOLECULE", "IC50 / µM"],
 "data": [
  ["CCCCCC=CCC=CCCCCCCCC(=O)O [9,12-Octadecadienoic acid, 9,12-octadecadienoic acid]", 56.3],
  ["CCCCCCCCC=CCCCCCCCC(=O)O [9-Octadecenoic acid, 9-octadecenoic acid]", 83.2],
  ["CCCCCCCCCCCCCC(=O)O [1-Tridecanecarboxylic acid, 1-tridecanecarboxylic acid]", 986],
  ["CCCCCCCCCCCCCCCCCC(=O)O [1-Heptadecanecarboxylic acid, 1-heptadecanecarboxylic acid]", 494],
  ["CCC=CCC=CCC=CCCCCCCCC(=O)O [9,12,15-Octadecatrienoic acid, 9,12,15-octadecatrienoic acid]", 76.1],
  ["CCCCCCCCCCCCCCCC(=O)O [1-Pentadecanecarboxylic acid, 1-pentadecanecarboxylic acid]", 656]
]}

###

# TARGET_ENTITY: α-glucosidase (EC 3.2.1.20)
# MEASUREMENT_PARAMETERS: means ± SE

{"columns": ["COMPOUND", "TARGET_ENTITY", "UNIT_ABBREV", "IC50 values, α–Glucosidase"],
 "data": [
  ["CC(=O)C=CC1C(C)=CCCC1(C)C (centres unmarked)", "α-glucosidase (EC 3.2.1.20)", "µg/mL", 33.2],
  ["CCCCCCCCCCCCCCCCCC(=O)O", "α-glucosidase (EC 3.2.1.20)", "µg/mL", 46.2],
  ["CC(=O)C=CC1=C(C)CCCC1(C)C", "α-glucosidase (EC 3.2.1.20)", "µg/mL", 31.5],
  ["CCC=CCC=CCC=CCCCCCCCC(=O)O", "α-glucosidase (EC 3.2.1.20)", "µg/mL", 4.5],
  ["CCCCCC=CCC=CCCCCCCCC(=O)O", "α-glucosidase (EC 3.2.1.20)", "µg/mL", 3.4],
  ["CCCCCCCCCCCCCC(=O)O", "α-glucosidase (EC 3.2.1.20)", "µg/mL", 60.4],
  ["CCCCCCCCCCCCCCCC(=O)O", "α-glucosidase (EC 3.2.1.20)", "µg/mL", 55.4],
  ["CCCCCCCCC=CCCCCCCCC(=O)O", "α-glucosidase (EC 3.2.1.20)", "µg/mL", 4.8]
]}
